All figures here come from paper PMC8308911.

assay-overview: Pharmacokinetics after single intravenous administration of the SaTSS standardized fraction (plasma, HPLC, PKSolver)
Type: in vivo, ICR mice
cond: ICR, mouse, plasma, iv, 400 mg/kg, intravenous 400 mg/kg SaTES fraction, Two-Compartment Model; read-out: t1/2β
property-label: half-life (min)
Hi! Could you send only the number? It should be in min, unit omitted.

Query (molecule): COc1c(C)cc2c(C(C)C)cc(C(=O)O)c(O)c2c1O ; field requested: half-life
20.6

---

assay-overview: Pharmacokinetics after single intravenous administration of the SaTSS standardized fraction (plasma, HPLC, PKSolver)
Format: in vivo, ICR mice
cond: ICR, mouse, plasma, iv, 400 mg/kg, intravenous 400 mg/kg SaTES fraction, One-Compartment Model; read-out: MRT (converted)
property-label: MRT (min)
Hi! Could you send only the number? It should be in min, unit omitted.

Query (compound): COc1c(C)cc2c(C(C)C)cc(C(=O)O)c(O)c2c1O ; field requested: MRT
30.7

---

assay-overview: Pharmacokinetics after single intravenous administration of the SaTSS standardized fraction (plasma, HPLC, PKSolver)
Type: in vivo, ICR mice
cond: ICR, mouse, plasma; intravenous single dose 400 mg/kg SaTES fraction, 15 min, n = 3
property-label: concentration at 15 min
Note: a bare number is incomplete; add the unit.

Query (compound): COc1c(C)cc2c(C(C)C)cc(C(=O)O)c(O)c2c1O [Sphaeralcic acid, sphaeralcic acid] ; field requested: concentration at 15 min
24400 ng/mL

---

assay-overview: Pharmacokinetics after single intravenous administration of the SaTSS standardized fraction (plasma, HPLC, PKSolver)
Assay type: in vivo, ICR mice
cond: ICR, mouse, plasma; intravenous single dose 400 mg/kg SaTES fraction, 8.0 min, n = 3
property-label: concentration at 8 min (ng/mL)
Hi! Could you send only the number? It should be in ng/mL, unit omitted.

Query (compound): COc1c(C)cc2c(C(C)C)cc(C(=O)O)c(O)c2c1O [Sphaeralcic acid, sphaeralcic acid] ; field requested: concentration at 8 min
31800

---

assay-overview: Pharmacokinetics after single intravenous administration of the SaTSS standardized fraction (plasma, HPLC, PKSolver)
Assay type: in vivo, ICR mice
cond: ICR, mouse, plasma, iv, 400 mg/kg, intravenous 400 mg/kg SaTES fraction, One-Compartment Model; read-out: AUC0-60 (converted)
property-label: AUC(0-t) (ng·h/mL)
Hi! Could you send only the number? It should be in ng·h/mL, unit omitted.

Query (compound): COc1c(C)cc2c(C(C)C)cc(C(=O)O)c(O)c2c1O [Sphaeralcic acid, sphaeralcic acid] ; field requested: AUC(0-t)
18300

---

assay-overview: Pharmacokinetics after single intravenous administration of the SaTSS standardized fraction (plasma, HPLC, PKSolver)
Assay type: in vivo, ICR mice
cond: ICR, mouse, plasma, iv, 400 mg/kg, intravenous 400 mg/kg SaTES fraction, One-Compartment Model; read-out: t1/2
property-label: half-life (min)
Hi! Could you send only the number? It should be in min, unit omitted.

Query (compound): COc1c(C)cc2c(C(C)C)cc(C(=O)O)c(O)c2c1O [Sphaeralcic acid, sphaeralcic acid] ; field requested: half-life
21.2

---

assay-overview: Pharmacokinetics after single oral administration of the SaTSS standardized fraction (plasma, HPLC, PKSolver)
Format: in vivo, ICR mice
cond: ICR, mouse, plasma, po, 400 mg/kg, oral 400 mg/kg SaTSS fraction, two-compartment model; read-out: t1/2β
property-label: half-life (min)
Hi! Could you send only the number? It should be in min, unit omitted.

Query (compound): COc1c(C)cc2c(C(C)C)cc(C(=O)O)c(O)c2c1O ; field requested: half-life
44.6
